test target: μ opioid receptor (Rattus norvegicus, UniProt P33535)
Construct: Male Sprague-Dawley rats (300-350 g) from the Canadian Breeding Laboratories were decapitated and after removal of the cerebellum the brains were homogenized; from tissue; host or cells: rat brain (without cerebellum) membranes, male Sprague-Dawley
Sequence (P33535 whole entry): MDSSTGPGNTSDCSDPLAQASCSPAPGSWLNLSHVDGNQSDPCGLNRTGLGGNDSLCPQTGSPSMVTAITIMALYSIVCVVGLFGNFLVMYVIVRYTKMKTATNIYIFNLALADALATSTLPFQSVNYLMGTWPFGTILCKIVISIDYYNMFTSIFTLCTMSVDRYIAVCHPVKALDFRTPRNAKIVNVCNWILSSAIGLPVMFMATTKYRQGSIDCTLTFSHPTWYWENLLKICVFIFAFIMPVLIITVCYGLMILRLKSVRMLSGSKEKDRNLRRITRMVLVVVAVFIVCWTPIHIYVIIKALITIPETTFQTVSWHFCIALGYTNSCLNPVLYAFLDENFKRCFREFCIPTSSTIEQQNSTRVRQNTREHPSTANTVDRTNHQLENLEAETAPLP
method notes: μ opioid receptor binding assay, displacement of [3H]DAMGO from rat brain membranes
measurement setup: rat brain membranes; means of 3 determinations; read-out: Ki^μ
Peptide text beside a SMILES is read from it.
// classify: if (Ki < 1000 nM) y else n

Query: Please state whether Ki is below 1000 nM for N[C@@H](Cc1ccc(O)cc1)C(=O)N1Cc2ccccc2C[C@H]1CN[C@@H](Cc1ccccc1)C(=O)O [HTyrTic-.psi.[CH2NH]PheOH, H-Tyr-Tic.PSI.[CH2 -NH]Phe-OH]
Reply: n

Query: Please state whether Ki is below 1000 nM for CN(C[C@@H]1Cc2ccccc2CN1C(=O)[C@@H](N)Cc1ccc(O)cc1)[C@@H](Cc1ccccc1)C(=O)N[C@@H](Cc1ccccc1)C(=O)O [HTyrTic.psi.[CH2NCH3]PhePheOH, H-Tyr-Tic.PSI.[CH2 --NCH3 ]Phe-Phe-OH]
Reply: n

Query: Please state whether Ki is below 1000 nM for N=C(N)NCCC[C@H](N)C(=O)N[C@@H](Cc1ccc(O)cc1)C(=O)N1Cc2ccccc2C[C@H]1C(=O)N[C@@H](Cc1ccccc1)C(=O)N[C@@H](Cc1ccccc1)C(N)=O [HArgTyrTicPhePheNH2, H-Arg-Tyr-Tic-Phe-Phe-NH2] (HELM PEPTIDE1{R.Y.[Tic].F.F.[am]}$$$$V2.0)
Reply: y

Query: Please state whether Ki is below 1000 nM for NC(=O)[C@H](Cc1ccccc1)NC(=O)[C@H](Cc1ccccc1)NC(=O)[C@@H]1Cc2ccccc2CN1C(=O)[C@@H](N)Cc1ccc(O)cc1 [HTyrTicPhePheNH2, H-Tyr-Tic-Phe-Phe-NH2] (HELM PEPTIDE1{Y.[Tic].F.F.[am]}$$$$V2.0)
Reply: y

Query: Please state whether Ki is below 1000 nM for N[C@@H](Cc1ccc(O)cc1)C(=O)N1Cc2ccccc2C[C@H]1C(=O)N[C@@H](Cc1ccccc1)C(=O)O [HTyrTicPheOH, H-Tyr-Tic-Phe-OH] (HELM PEPTIDE1{Y.[Tic].F}$$$$V2.0)
Reply: n

src = patent US5602099A
